assay notes: Primary qHTS for inhibitors of nuclear receptor binding SET domain protein 2 (NSD2) in an isogenic RCH-ACV NSD2 p.E1099K mutant (9B) (AID 1645876); also: nearly all actives have a fitted effect of over 70% in size
measurement parameters: RCH-ACV (leukaemia line) NSD2 E1099K (9B) viability, CellTiter-Glo, 72 h; series mostly up to 44.9 µM
Inconclusive results are not listed. Activity calls are given as the source filed them. Calls follow the shape of the dose curve; as a rule, active = well fitted inhibition curve with a large enough effect; inconclusive = small, poorly fitted or top-dose-only effect; inactive = flat fitted curve, though single readings scatter.
Hi! Could you answer with just one of these? Y for active, N for inactive

For this compound, state the assay outcome: O=C(O)/C=C/c1cc2c(cc1O[C@@H]1O[C@H](CO)[C@@H](O)[C@H](O)[C@H]1O)OCO2 N

Again, but for C=C1CCC2C(C)(COC(C)=O)CCCC2(C)C1CCC(C)CC(=O)O (centres undefined) N

Likewise for COc1cc2c(cc1O)CC[C@H]1[C@@H]2CC[C@]2(C)[C@H](O)CC[C@@H]12 ? Y

Next record, please: COc1cc2nc(N3CCC(N4CCCCC4)CC3)nc(NC3CCCCCC3)c2cc1OC Y

Same lookup for C/C(=C\CCC(C)CCO)C(=O)OC1(C)CCC2C(C(=O)O)=COC(OC3OC(CO)C(O)C(O)C3O)C21 (centres undefined) , please. N

Now the same for C/C=C/C1=CC2=C(CO1)C(=O)C(C)(O)C(OC(=O)c1c(C)cc(OC)cc1O)C2 (centres undefined) Y

And for CCOC(=O)C(CCc1ccccc1)NC(C)C(=O)N1C(=O)N(C)CC1C(=O)O (centres undefined) ? N

What do you have for CC1CCCCN1S(=O)(=O)c1ccc(N2CCCC2=O)cc1 (centres undefined) ? N

// query: CC(C)(O)/C=C/C1=CC(=O)[C@@](C)(O)C[C@H]1O N

====

Test system: PA-1
assay notes: Primary qHTS to identify gynecologic anti-cancer compounds using libraries of approved drugs and bioactive compounds (AID 1345084); also: nearly all actives have a fitted effect of over 55% in size
measurement parameters: Gynecologic cancer cell panel viability, ATPlite luminescence, 48 h; series mostly up to 57.5 µM
Results filed as inconclusive are left out. Calls of active or inactive are those of the source. Calls follow the shape of the dose curve; as a rule, active = well fitted cell-killing curve with a large enough effect; inconclusive = small, poorly fitted or top-dose-only effect, or effect the other way; inactive = flat fitted curve, though single readings scatter.
Give your call using only these classes: t = active, f = inactive

State the result this test recorded for CC(C)=CCC/C(C)=C/CCC1(C)Oc2c(c(O)cc3c2CN(C(CCC(=O)O)C(=O)O)C3=O)CC1O (stereo not drawn) . f

Moving on to the next compound: O=C(O)c1cccc(S(=O)(=O)N2CCc3ccccc3C2)c1 f

One more compound: Cc1cc(OCc2nnc(SC3CCCC3)n2-c2cccnc2)ccc1-c1ccc(S(C)(=O)=O)cc1 t

Same read-out for CC(=O)c1cc(C(=O)N[C@@H](C)Cn2ccc(-c3ccc(C#N)c(Cl)c3)n2)[nH]n1 ? f

Likewise for CC(=O)O[C@@H]1[C@@H](O)[C@H](O[C@H]2CC[C@]34C[C@]35CC[C@]3(C)[C@@H]([C@@]6(C)CC[C@@H](C(C)(C)O)O6)[C@@H](O)C[C@@]3(C)[C@@H]5C[C@H](O[C@@H]3O[C@H](CO)[C@@H](O)[C@H](O)[C@H]3O)[C@H]4C2(C)C)OC[C@H]1O ? f

Subsequent entry: CN[C@H](CC(C)C)C(=O)N[C@H]1C(=O)N[C@@H](CC(N)=O)C(=O)N[C@H]2C(=O)N[C@H]3C(=O)N[C@H](C(=O)N[C@H](C(=O)O)c4cc(O)cc(O)c4-c4cc3ccc4O)[C@H](O[C@H]3C[C@](C)(N)[C@@H](O)[C@H](C)O3)c3ccc(c(Cl)c3)Oc3cc2cc(c3O[C@@H]2O[C@H](CO)[C@@H](O)[C@H](O)[C@H]2O[C@H]2C[C@](C)(NCc3ccc(-c4ccc(Cl)cc4)cc3)[C@@H](O)[C@H](C)O2)Oc2ccc(cc2Cl)[C@H]1O f

What would you report for NCc1ccc(Nc2ncc(F)c(Nc3ccccc3)n2)cc1 ? t

Now try COC(=O)/C=C/C12COC(C)(C)C1C(O)C(OC(C)=O)C1(C)C2CCC2(C)C(c3ccoc3)OC(=O)C3OC321 (stereo not drawn) . f

Also COC(C(=O)N1Cc2[nH]nc(NC(=O)c3ccc(N4CCN(C)CC4)cc3)c2C1)c1ccccc1 (stereo not drawn) ? t

Item: CCC(Nc1ncnc2nc[nH]c12)c1nc2cccc(F)c2c(=O)n1-c1ccccc1 (stereo not drawn) f

Now give it for CC(=O)O[C@]1(C(C)=O)CC[C@H]2[C@@H]3C[C@H](C)C4=CC(=O)C=C[C@]4(C)[C@@]3(F)[C@@H](O)C[C@@]21C too. f

Same read-out for C[C@H](C(=O)NC1CCCC1)N(C(=O)Cn1nnc(-c2ccc3c(c2)OCO3)n1)C1CCCCC1 ? f

C=C[C@@](C)(O)CC/C=C(\C)C(=O)O[C@@H]1[C@@H]2O[C@]2(C)[C@H]2[C@H](O[C@@H]3O[C@H](CO)[C@@H](O)[C@H](O)[C@H]3O)OC=C[C@@]12O , same question. f
